Tested on: MOLM13
experiment description: Tumor growth inhibitory activities in nude mice xenograft model inoculated with human leukemia cells MOLM13
Format: in vivo
conditions used: Mus musculus, MOLM-13, po, 240 h; 50 mg/kg orally once a day, day 10; read-out: TGIR (%) (measurement date)
Protocol: Pharmacological Test Example 5 Tumor Growth Inhibitory Activities in Nude Mice Xenograft Model Inoculated with Human Leukemia Cells Human leukemia cells MOLM13 (subdivided from Hayashibara Biochemical Laboratories, Inc.) were subcutaneously transplanted into nude mice. […] The test compound suspended or dissolved in 0.5% methylcellulose was orally administered at a dose of 0.1 ml per 10 g body weight once a day for 9 days. […] The tumor growth inhibition rate (TGIR) was calculated as follows: […]
Structures can show the parent of a compound that is named as a salt.
Classification field: enter Fulfilled for inhibition in vivo at 50 mg/kg values not below 90%, Not fulfilled for values below it.

>  <molecule>
COc1cc2nccc(Oc3ccc(NC(=O)NC4CCCC(C)(C)C4)cc3F)c2cc1OC (stereo not drawn)

>  <class assignment>
Fulfilled

$$$$
>  <molecule>
COc1cc2nccc(Oc3ccc(NC(=O)NC4CCCC(C)(C)C4)cc3Cl)c2cc1OC (stereo not drawn)

>  <class assignment>
Fulfilled

$$$$
>  <molecule>
COc1cc2c(Oc3ccc(NC(=O)NCCC(C)(C)C)c(F)c3)ccnc2cc1OCCN1CCCCC1 [Compound 43, hydrochloride]

>  <class assignment>
Fulfilled

$$$$

INPUT: Form field: inhibition in vivo at 50 mg/kg at least 90%? Entry: COc1cc2nccc(Oc3ccc(NC(=O)NC4CC(C)CC(C)(C)C4)cc3Cl)c2cc1OC (stereo not drawn)
OUTPUT: Not fulfilled

INPUT: Form field: inhibition in vivo at 50 mg/kg at least 90%? Entry: COc1cc2nccc(Oc3ccc(NC(=O)NCCC(C)(C)C)cc3F)c2cc1OC [Compound 10, hydrochloride]
OUTPUT: Not fulfilled
